# maps each entry to its IC50
tested on: LoVo (human colorectal adenocarcinoma) cell line; assay: MTS cytotoxicity assay, LoVo cell line; type: cell-based; settings: 48 h of incubation
Observed Property: IC50 (µM)

Compound	Observed Property	Unit Spec	Bound Sign	Result Number
CCn1cc(C(=O)[O-])c(=O)c2ccc(C)nc21.CCn1cc(C(=O)[O-])c(=O)c2ccc(C)nc21.CCn1cc(C(=O)[O-])c(=O)c2ccc(C)nc21.O.O.O.O.O.O.O.O.[La+3] [La(nal)3, La(C12H11N2O3)3(H2O)2·6H2O]	IC50	µM	=	49.8
CCn1cc(C(=O)[O-])c(=O)c2ccc(C)nc21.CCn1cc(C(=O)[O-])c(=O)c2ccc(C)nc21.O.[OH-].[Tb+3] [Tb(nal)2, Tb(C12H11N2O3)2(OH)(H2O)·1.5H2O]	IC50	µM	>	200
CCn1cc(C(=O)[O-])c(=O)c2ccc(C)nc21.CCn1cc(C(=O)[O-])c(=O)c2ccc(C)nc21.O.O.O.O.[OH-].[Sm+3] [Sm(nal)2, Sm(C12H11N2O3)2(OH)(H2O)·3H2O]	IC50	µM	=	92.4
CCn1cc(C(=O)[O-])c(=O)c2ccc(C)nc21.CCn1cc(C(=O)[O-])c(=O)c2ccc(C)nc21.O.O.O.[La+3].[OH-] [La(nal)2, La(C12H11N2O3)2(OH)(H2O)·2H2O]	IC50	µM	=	25.1
